LD50 values for the compounds below.
# Run description: in vivo
# Test parameters: iv, mouse, i.v. (tail vein), five male and five female mice per dosage, read-out: Acute Toxicity LD50 Mouse

Solved cases (3 shown):
Compound	LD50
CC(C)NCC(O)COc1cccc2nc[nH]c12 (stereo not shown)	38 mg/kg
Cc1nc2cccc(OCC(O)CNC(C)(C)C)c2[nH]1 (stereo not shown)	34 mg/kg
CC(C)(C)NCC(O)COc1cccc2nc[nH]c12 (stereo not shown)	28 mg/kg

With those in mind, consider the next compound.
Which LD50 is reported for this compound? Cc1nc2cccc(OCC(O)CNC(C)C)c2[nH]1 (stereo not shown)
29 mg/kg
